- target: ASBT (Homo sapiens, UniProt Q12908)
- Construct: The full-length open reading frames of NTCP, ASBT, and SOAT were cloned; expressed in transfected cells; host or cells: Flp-In T-REX HEK293 (ASBT-HEK293), tetracycline-induced
- Sequence (Q12908 whole entry): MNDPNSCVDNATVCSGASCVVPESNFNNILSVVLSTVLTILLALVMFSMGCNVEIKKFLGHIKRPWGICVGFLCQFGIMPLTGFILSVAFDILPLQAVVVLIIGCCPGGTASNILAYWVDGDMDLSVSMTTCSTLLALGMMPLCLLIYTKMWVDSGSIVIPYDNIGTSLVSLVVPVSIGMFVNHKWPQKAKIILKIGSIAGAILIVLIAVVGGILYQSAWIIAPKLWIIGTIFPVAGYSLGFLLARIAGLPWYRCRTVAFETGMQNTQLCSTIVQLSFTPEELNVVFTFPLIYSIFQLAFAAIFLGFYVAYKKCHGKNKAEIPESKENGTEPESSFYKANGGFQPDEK
- assay summary: Transport inhibition in ASBT-HEK293 cells
- Type: cell-based
- condition: ASBT IC50, substrate [3H]TC, triterpenoid inhibitors; 1 µM [3H]TC, 10 min after 5 min preincubation
pIC50: −log10 of the molar value.
quantity: pIC50

Asked: Field: pIC50 (ASBT (Homo sapiens, UniProt Q12908)). Entry: C=C(C)[C@@H]1CC[C@]2(CO)CC[C@]3(C)[C@H](CC[C@@H]4[C@@]5(C)CC[C@H](O)C(C)(C)[C@@H]5CC[C@]43C)[C@@H]12
Given back: < 3.00
